Listed here: items and their measured IC50.
testTarget: NLRP3 (Homo sapiens)
protocolDescription: THP-1 cells pyroptosis assay
Assay type: cell-based
Parameters: Seed THP-1 cells (25,000 cells/well) containing 1.0 μg/ml LPS; host or cells: THP-1
testSettings: LPS 1.0 μg/ml, nigericin 5 μM, resazurin readout, 10 μM top dose (Example 2: top dose of 30 μM)

Consider the following illustrative entries.
{"molecule": "CN1CCC2CN(S(=O)(=O)c3nnc(Nc4c5c(cc6c4CCC6)CCC5)[nH]3)CC21 (stereo not shown)", "IC50": "≤ 5 µM"}
{"molecule": "CC(C)(O)CCNS(=O)(=O)c1nnc(Nc2c3c(cc4c2CCC4)CCC3)[nH]1", "IC50": "≤ 5 µM"}
{"molecule": "CN(C)CCCNS(=O)(=O)c1nnc(Nc2c3c(cc4c2CCC4)CCC3)[nH]1", "IC50": "≤ 0.5 µM"}
{"molecule": "O=S(=O)(c1nnc(Nc2c3c(cc4c2CCC4)CCC3)[nH]1)N1CC[C@H](CO)C1", "IC50": "≤ 10 µM"}
{"molecule": "Cc1cc2c(c(Nc3nnc(S(C)(=O)=O)[nH]3)c1-c1ccnc(OC3CCNCC3)c1)CCC2", "IC50": "≤ 5 µM"}

Quick one: give measured IC50 for `CS(=O)(=O)c1nnc(Nc2c(-c3ccnc(OCCO)c3)ccc3c2CCC3)[nH]1`
≤ 10 µM

For the molecule CN1CCCC1CNS(=O)(=O)c1nnc(Nc2c3c(cc4c2CCC4)CCC3)[nH]1 (stereo not shown) , report IC50.
≤ 1 µM

====

testTarget: UniProt Q96P20
protocolDescription: THP-1 cells pyroptosis assay
Format: cell-based
Design: Seed THP-1 cells (25,000 cells/well) containing 1.0 μg/ml LPS; host or cells: THP-1
testSettings: LPS 1.0 μg/ml, nigericin 5 μM, resazurin readout, 10 μM top dose (Example 2: top dose of 30 μM)
Reported IC50 values follow for various compounds

Solved cases below.
{"compound": "O=S(=O)(c1nnc(Nc2c3c(cc4c2CCC4)CCC3)[nH]1)C1CCOCC1", "IC50": "≤ 10 µM"}
{"compound": "NS(=O)(=O)c1cccc(S(=O)(=O)c2nnc(Nc3c4c(cc5c3CCC5)CCC4)[nH]2)c1", "IC50": "≤ 5 µM"}
{"compound": "O=S(=O)(CC1CCCO1)c1nnc(Nc2c3c(cc4c2CCC4)CCC3)[nH]1 (stereo not shown)", "IC50": "≤ 10 µM"}

// moving on: another record for IC50
Dear colleague, please send me the reported IC50 for `O=S(=O)(Cc1cccnc1)c1nnc(Nc2c3c(cc4c2CCC4)CCC3)[nH]1` when you can.
≤ 10 µM

====

protocolDescription: PK, intravenous administration
Type: in vivo
testSettings: rat, plasma, male Sprague Dawley rats, dose about 1 mg/kg
quantity: log10(clearance) (log10 of the value in mL/min/kg)
Log scale reminder: clearance in mL/min/kg, then log10 taken.

Check out these entries, answers already filled in.
{"compound": "COc1cc(-c2ccc3c(c2Nc2nnc(S(=O)(=O)N4CC[C@H](C(C)(C)O)C4)[nH]2)CCC3)ccn1 [Example 231]", "quantity": "log10(clearance)", "resultNumber": 1.56}
{"compound": "COc1cc(-c2cc(F)cc(C(C)C)c2Oc2nnc(S(=O)(=O)N3CC4(CCN(C)C4)C3)[nH]2)ccn1 [Example 250]", "quantity": "log10(clearance)", "resultNumber": 1.74}
{"compound": "COc1cc(-c2cc(F)cc(C(C)C)c2Nc2nnc(S(=O)(=O)N3CCC(CN(C)C)C3)[nH]2)ccn1 (stereo not shown) [Example 259]", "quantity": "log10(clearance)", "resultNumber": 1.95}

Using known records, supply log10(clearance) for CN1CCC(Oc2cc(-c3ccc4c(c3Nc3nnc(S(C)(=O)=O)[nH]3)CCC4)ccn2)CC1 [Example 235]
1.59

Look up log10(clearance) of COc1cc(-c2cc(F)cc(C(C)C)c2Oc2nnc(S(=O)(=O)N3CCC4(CCN4C)CC3)[nH]2)ccn1 [Example 252] and report it.
1.71

// Input: CC(C)N1CC(S(=O)(=O)c2nnc(Nc3c4c(cc5c3CCC5)CCC4)[nH]2)C1 [Example 22] . Output its log10(clearance) only.
1.66

Respond only with log10(clearance) recorded for CN1CCC2(CCN(S(=O)(=O)c3nnc(Nc4c5c(cc6c4CCC6)CCC5)[nH]3)CC2)C1 [Example 276]
1.84

Please give the documented log10(clearance) of CN(C)C1CCN(S(=O)(=O)c2nnc(Nc3c4c(c(Cl)c5c3CCC5)CCC4)[nH]2)CC1 [Example 300]
1.85

Determine from records and report log10(clearance) for O=S(=O)(c1nnc(Nc2c3c(cc4c2CCC4)CCC3)[nH]1)N1CC2(CCN(C3CC3)C2)C1 [Example 245]
1.70

Note down log10(clearance) recorded for CN(C)CCNS(=O)(=O)c1nnc(Nc2c3c(cc4c2CCC4)CCC3)[nH]1 [Example 94]
1.67

State its log10(clearance): Cn1cc(S(=O)(=O)c2nnc(Nc3c4c(cc5c3CCC5)CCC4)[nH]2)cn1 [Example 159]
0.84

// Input: CCN(CC)CCCS(=O)(=O)c1nnc(Nc2c3c(cc4c2CCC4)CCC3)[nH]1 [Example 24] . Output its log10(clearance) only.
1.98

Report log10(clearance) for COc1cc(-c2cc(F)c3c(c2Nc2nnc(S(=O)(=O)N4CC5(CCN(C)C5)C4)[nH]2)CCC3)ccn1 [Example 299]
2.01

Annotate the compound CN(C)Cc1ccc(S(=O)(=O)c2nnc(Nc3c4c(cc5c3CCC5)CCC4)[nH]2)cc1 [Example 43] with its measured log10(clearance).
1.45

Please give the documented log10(clearance) of CN1CCC12CCN(S(=O)(=O)c1nnc(Nc3c4c(cc5c3CCC5)CCC4)[nH]1)CC2 [Example 270]
1.85

Tell me its log10(clearance) given COc1cc(-c2cc(F)cc(C(C)C)c2Nc2nnc(S(=O)(=O)c3ccccc3)[nH]2)ccn1 [Example 45] as the entry.
1.49

====

protocolDescription: PK, intravenous administration
Type: in vivo
testSettings: rat, plasma, male Sprague Dawley rats, dose about 1 mg/kg
Description: Pharmacokinetic parameters were determined in male Sprague Dawley rats (Vital River Laboratory Animal Technology Co Ltd, Beijing, China, 6-9 weeks old). Animals were maintained under a 12 h light/dark cycle. Animals had free access to food and water, except that orally dosed animals were food deprived overnight prior to the study. […]
Attribute: clearance
Report as a plain number; the unit mL/min/kg is understood.

// Input: CN(C)C1CCCN(S(=O)(=O)c2nnc(Nc3c4c(cc5c3CCC5)CCC4)[nH]2)CC1 (stereo not shown) . Output its clearance only.
75

Please supply the value of reported clearance for the item `CN1CCOCC12CCN(S(=O)(=O)c1nnc(Nc3c4c(cc5c3CCC5)CCC4)[nH]1)CC2`
52.9

Recall and state the measured clearance for `CN1CCCC12CCN(S(=O)(=O)c1nnc(Nc3c4c(cc5c3CCC5)CCC4)[nH]1)CC2` .
60

Tell me measured clearance for `CCN(CC)CCNS(=O)(=O)c1nnc(Nc2c3c(cc4c2CCC4)CCC3)[nH]1` please.
59.9

Please give the documented clearance of CN(C)CC1CCN(S(=O)(=O)c2nnc(Nc3c4c(cc5c3CCC5)CCC4)[nH]2)C1 (stereo not shown)
106

Specify reported clearance for the molecule shown: `COc1cc(-c2ccc3c(c2Nc2nnc(S(=O)(=O)N4CCC(N(C)C)CC4)[nH]2)CCO3)ccn1`
77.2

====

Recorded pIC50 values for a group of compounds are listed next.
testTarget: NLRP3 (Homo sapiens, UniProt Q96P20)
Sequence (Q96P20 whole entry): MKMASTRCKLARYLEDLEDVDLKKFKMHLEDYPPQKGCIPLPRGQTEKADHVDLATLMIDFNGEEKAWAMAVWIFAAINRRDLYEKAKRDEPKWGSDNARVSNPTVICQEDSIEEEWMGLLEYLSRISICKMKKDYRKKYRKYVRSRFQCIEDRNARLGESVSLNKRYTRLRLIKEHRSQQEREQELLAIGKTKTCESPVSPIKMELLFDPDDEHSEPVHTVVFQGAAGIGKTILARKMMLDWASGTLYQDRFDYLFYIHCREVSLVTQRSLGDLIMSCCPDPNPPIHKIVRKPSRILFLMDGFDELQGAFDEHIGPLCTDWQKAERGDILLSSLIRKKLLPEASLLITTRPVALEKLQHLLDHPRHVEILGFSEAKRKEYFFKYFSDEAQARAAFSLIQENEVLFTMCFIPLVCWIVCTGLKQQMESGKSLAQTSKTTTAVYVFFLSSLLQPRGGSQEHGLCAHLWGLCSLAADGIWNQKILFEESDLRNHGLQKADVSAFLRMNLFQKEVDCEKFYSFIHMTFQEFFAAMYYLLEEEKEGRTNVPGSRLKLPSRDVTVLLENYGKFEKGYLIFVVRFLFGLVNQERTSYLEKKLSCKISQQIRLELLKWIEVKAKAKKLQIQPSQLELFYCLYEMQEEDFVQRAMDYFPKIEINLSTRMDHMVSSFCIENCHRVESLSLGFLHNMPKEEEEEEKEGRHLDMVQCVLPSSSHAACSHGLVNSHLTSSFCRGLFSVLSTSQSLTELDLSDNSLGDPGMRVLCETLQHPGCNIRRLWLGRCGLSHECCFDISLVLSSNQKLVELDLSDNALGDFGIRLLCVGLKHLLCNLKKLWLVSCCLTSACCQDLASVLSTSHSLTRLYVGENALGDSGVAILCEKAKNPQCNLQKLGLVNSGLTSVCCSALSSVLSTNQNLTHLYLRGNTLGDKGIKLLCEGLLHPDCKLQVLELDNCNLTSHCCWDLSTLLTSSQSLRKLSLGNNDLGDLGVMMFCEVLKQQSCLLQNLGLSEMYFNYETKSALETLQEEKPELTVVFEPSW
protocolDescription: THP-1 cells pyroptosis assay
Type: cell-based
Parameters: Seed THP-1 cells (25,000 cells/well) containing 1.0 μg/ml LPS; host or cells: THP-1
testSettings: LPS 1.0 μg/ml, nigericin 5 μM, resazurin readout, 10 μM top dose (Example 2: top dose of 30 μM)
pIC50: −log10 of the molar value.

{"compound": "COc1cc(-c2ccc3c(c2Nc2nnc(S(=O)(=O)c4ccccc4)[nH]2)CCO3)ccn1 [Example 190]", "pIC50": "≥ 5.30"}
{"compound": "CC(=O)c1c2c(c(Nc3nnc(S(=O)(=O)N4CCC(N(C)C)CC4)[nH]3)c3c1CCC3)CCC2 [Example 232]", "pIC50": "≥ 6.00"}
{"compound": "COc1cc(-c2cc(F)cc(C(C)C)c2Nc2nnc(S(=O)(=O)N3CCC(N(C)C)CC3)[nH]2)ccn1 [Example 261]", "pIC50": "≥ 6.30"}
{"compound": "O=S(=O)(c1ccccc1)c1nnc(Nc2c3c(cc4c2CCC4)CCC3)[nH]1 [Example 40]", "pIC50": "≥ 6.00"}
{"compound": "O=C1CCC(CNS(=O)(=O)c2nnc(Nc3c4c(cc5c3CCC5)CCC4)[nH]2)N1 (stereo not shown) [Example 121]", "pIC50": "≥ 5.00"}

Please report pIC50 for the following compound: CN1CC2(C1)CN(S(=O)(=O)c1nnc(Nc3c4c(cc5c3CCC5)CCC4)[nH]1)C2 [Example 137]
≥ 6.30

Entry CC(C)n1ncc(-c2ccncc2)c1Nc1nnc(S(=O)(=O)N2CCC(N(C)C)CC2)[nH]1 [Example 198] needs its pIC50 filled in; supply it.
≥ 5.00

Using known records, supply pIC50 for COc1cc(-c2ccc3c(c2Nc2nnc(S(=O)(=O)c4ccccc4C#N)[nH]2)CCC3)ccn1 [Example 310]
≥ 5.30

Supply measured pIC50 of NC(=O)c1cccc(S(=O)(=O)c2nnc(Nc3c4c(cc5c3CCC5)CCC4)[nH]2)c1 [Example 341] in your reply.
≥ 6.30

Name the recorded pIC50 of the compound listed here: COc1cc(-c2cc(F)cc(C(C)C)c2Oc2nnc(S(=O)(=O)N3CCC(CN(C)C)C3)[nH]2)ccn1 (stereo not shown) [Example 69]
≥ 6.00

Reference for the values: patent US20210261512A1
